Assay: Pharmacokinetics of ginsenosides after single oral RGE with or without amoxicillin treatment
Format: in vivo, mice
Settings: male, ICR, mouse, plasma, po, 2 g/kg, Amoxicillin 3 days pretreatment; single oral RGE 2 g/kg; read-out: Cmax
experimental_endpoint: Cmax (ng/mL)
Numbers only, in ng/mL.

### Prompt So what's the measured Cmax for this one? CC(C)=CCC[C@](C)(O[C@@H]1O[C@H](CO[C@@H]2O[C@H](CO)[C@@H](O)[C@H](O)[C@H]2O)[C@@H](O)[C@H](O)[C@H]1O)[C@H]1CC[C@]2(C)[C@@H]1[C@H](O)C[C@@H]1[C@@]3(C)CC[C@H](O[C@@H]4O[C@H](CO)[C@@H](O)[C@H](O)[C@H]4O[C@@H]4O[C@H](CO)[C@@H](O)[C@H](O)[C@H]4O)C(C)(C)[C@@H]3CC[C@]12C [GRb1, 20(S)-ginsenosides Rb1]
### Response 28.2

* * *

Test: Pharmacokinetics of ginsenosides after single oral RGE after amoxicillin with or without repeated LAB treatment
Details: single oral RGE 2 g/kg
experimental_endpoint: Detection in mouse plasma following repeated LAB administration in addition to amoxicillin

CC(C)=CCC[C@](C)(O)[C@H]1CC[C@]2(C)[C@@H]1[C@H](O)C[C@@H]1[C@@]3(C)CC[C@H](O[C@@H]4O[C@H](CO)[C@@H](O)[C@H](O)[C@H]4O[C@@H]4O[C@H](CO)[C@@H](O)[C@H](O)[C@H]4O)C(C)(C)[C@@H]3CC[C@]12C [GRg3]
detected
CC(C)=CCC[C@](C)(O[C@@H]1O[C@H](CO[C@@H]2O[C@H](CO)[C@@H](O)[C@H](O)[C@H]2O)[C@@H](O)[C@H](O)[C@H]1O)[C@H]1CC[C@]2(C)[C@@H]1[C@H](O)C[C@@H]1[C@@]3(C)CC[C@H](O[C@@H]4O[C@H](CO)[C@@H](O)[C@H](O)[C@H]4O[C@@H]4O[C@H](CO)[C@@H](O)[C@H](O)[C@H]4O)C(C)(C)[C@@H]3CC[C@]12C [GRb1, 20(S)-ginsenosides Rb1]
detected
CC(C)=CCC[C@](C)(O[C@@H]1O[C@H](CO)[C@@H](O)[C@H](O)[C@H]1O)[C@H]1CC[C@]2(C)[C@@H]1[C@H](O)C[C@@H]1[C@@]3(C)CC[C@H](O)C(C)(C)[C@@H]3CC[C@]12C [CK, 20(S)-compound K]
detected

* * *

Would you mind telling me the reported Cmax of each entry?
Assay: Pharmacokinetics of ginsenosides after single oral RGE with or without amoxicillin treatment
Type: in vivo, mice
Conditions: Control; single oral RGE 2 g/kg; plasma
Provide the measurement as a number trailed by its unit.

Please review the following examples before continuing.
CC(C)=CCC[C@](C)(O[C@@H]1O[C@H](CO)[C@@H](O)[C@H](O)[C@H]1O)[C@H]1CC[C@]2(C)[C@@H]1[C@H](O)C[C@@H]1[C@@]3(C)CC[C@H](O)C(C)(C)[C@@H]3CC[C@]12C [CK, 20(S)-compound K]
0.0036 ± 0.0014 µg/mL
CC(C)=CCC[C@](C)(O[C@@H]1O[C@H](CO[C@@H]2OC[C@H](O)[C@H](O)[C@H]2O)[C@@H](O)[C@H](O)[C@H]1O)[C@H]1CC[C@]2(C)[C@@H]1[C@H](O)C[C@@H]1[C@@]3(C)CC[C@H](O[C@@H]4O[C@H](CO)[C@@H](O)[C@H](O)[C@H]4O[C@@H]4O[C@H](CO)[C@@H](O)[C@H](O)[C@H]4O)C(C)(C)[C@@H]3CC[C@]12C
0.0125 ± 0.0021 µg/mL
CC(C)=CCC[C@](C)(O[C@@H]1O[C@H](CO)[C@@H](O)[C@H](O)[C@H]1O)[C@H]1CC[C@]2(C)[C@@H]1[C@H](O)C[C@@H]1[C@@]3(C)CC[C@H](O[C@@H]4O[C@H](CO)[C@@H](O)[C@H](O)[C@H]4O[C@@H]4O[C@H](CO)[C@@H](O)[C@H](O)[C@H]4O)C(C)(C)[C@@H]3CC[C@]12C
0.0086 ± 0.0018 µg/mL

### Prompt For the compound shown here, `CC(C)=CCC[C@](C)(O[C@@H]1O[C@H](CO[C@@H]2O[C@@H](CO)[C@H](O)[C@H]2O)[C@@H](O)[C@H](O)[C@H]1O)[C@H]1CC[C@]2(C)[C@@H]1[C@H](O)C[C@@H]1[C@@]3(C)CC[C@H](O[C@@H]4O[C@H](CO)[C@@H](O)[C@H](O)[C@H]4O[C@@H]4O[C@H](CO)[C@@H](O)[C@H](O)[C@H]4O)C(C)(C)[C@@H]3CC[C@]12C` , give the reported Cmax.
### Response 0.0172 ± 0.0031 µg/mL
